Measured values drawn from ChEMBL document CHEMBL3988442 for this set.

- Assay procedure: microbe, parasite or virus in culture
- Condition description: Mycobacterium tuberculosis, 72 h, read-out: pIC50 (converted)
The following molecules are shown together with reported IC50 values.

| Molecule | Limit sign | IC50, µM |
| --- | --- | --- |
| N#Cc1cc(Cl)ccc1N1CCN(C(=O)C2CCC2)CC1 | > | 50.1 |
| COc1ccccc1NC(=O)c1ccc(C)nc1 | > | 501 |
| Cc1cc(Cl)ccc1C(=O)C1CCCN(Cc2cnc(N(C)C)s2)C1 (stereo not given) | = | 45.7 |
| CCc1nc(NC2CCCN(C(=O)c3cccs3)C2)c2cnn(C)c2n1 (stereo not given) | > | 50.1 |
| CC(C)CCNC(=O)Nc1ccc(S(C)(=O)=O)cc1 | = | 162 |
| CN(Cc1c(F)cccc1Cl)S(=O)(=O)N1CCOCC1 | = | 270 |
| O=C(NCC1CCCO1)c1cc(-c2cccs2)on1 (stereo not given) | = | 38.3 |
| CC(C)Oc1ccc(C(=O)NCc2ccnc(N3CCCC3)c2)cn1 | = | 36.9 |
| O=C(Nc1nc(-c2ccsc2)ns1)C1CCCN1 (stereo not given) | > | 501 |
| COc1cccc2c1CCNCC2 | = | 271 |
| N#Cc1cccnc1NC1CCN(c2ccccc2OC(F)F)C1=O (stereo not given) | > | 50.1 |
| CCNc1ncc(C(=O)N2CCC(c3ccccc3C(=O)O)C2)cn1 (stereo not given) | > | 50.1 |
| O=C(Cn1cccn1)N1CCC(Cn2cc(-c3ccsc3)nn2)CC1 | > | 50.1 |
| Cc1cnn(CC2CCCN2Cc2coc(-c3ccccc3)n2)c1 (stereo not given) | = | 22.6 |
| COC(=O)c1cc(C)nc(N2CCN(Cc3cc(C(C)C)no3)CC2)n1 | > | 50.1 |
